Just for reference, PubChem BioAssay AID743059 is where these values come from.

- target.desc: Nuclear hormone receptor DAF-12 (Heterodera glycines)
- run.description: hgDAF-12 reporter activation EC50 – cell-based, luminescence, HEK293, dose response (AID 743059);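 also: agonist potency for compounds that raise hgDAF-12 reporter luminescence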
- conditions.used: HEK293 hgDAF-12 reporter, luciferase luminescence
Activity calls are given as the source filed them.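 The calls were made as follows: active = EC50 at or below 10 µM; inactive = EC50 above 10 µM.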
Each record here notes measured EC50.

Worked examples follow.
structure_smiles=Cc1cc(O)ccc1Nc1cc(-c2cccc(N(C)C)c2)ncn1 recorded_endpoint=EC50 result_value="> 67.5 µM (inactive)"
structure_smiles=Cc1cc(C(=O)CSc2cccc[n+]2[O-])c(C)n1-c1ccccc1 recorded_endpoint=EC50 result_value="> 67.5 µM (inactive)"
structure_smiles=O=C(NCCCn1ccnc1)c1cc(-c2ccccc2)on1 recorded_endpoint=EC50 result_value="9.16 µM"
structure_smiles=ON=C(CCc1ccccc1)c1ccccc1 recorded_endpoint=EC50 result_value="> 67.5 µM (inactive)"
structure_smiles=C=CCN1C=CC(=C/C=C(/C#N)C(=O)OCC)C=C1 recorded_endpoint=EC50 result_value="> 67.5 µM (inactive)"
structure_smiles=C(=N\NC1=Nc2cccc3cccc1c23)/c1ccccc1 recorded_endpoint=EC50 result_value="> 67.5 µM (inactive)"

Lab note: next compound to report on.
Inquiry: Answer with the recorded EC50 for the compound listed here: O=C(Nc1ncccc1O)c1ccc(C(=O)c2ccccc2)cc1
Reply text: 4.55 µM

* * *

- target.desc: Nuclear hormone receptor DAF-12 (Heterodera glycines)
- run.description: hgDAF-12 reporter activation EC50 – cell-based, luminescence, HEK293, dose response (AID 743059);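 also: agonist potency for compounds that raise hgDAF-12 reporter luminescence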
- conditions.used: HEK293 hgDAF-12 reporter, luciferase luminescence
Calls of active or inactive are those of the source.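 Rule for the calls: active = EC50 at or below 10 µM; inactive = EC50 above 10 µM.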
recorded.endpoint: EC50

Worked examples follow.
compound=Cc1cc(C(=O)NC2CCCCC2)c(C)n1-c1ccc(F)cc1 result_value="> 67.5 µM (inactive)"
compound=CN1C(=O)/C(=C/C=C2\SCCN2C)N(C)C1=S result_value="> 67.6 µM (inactive)"
compound=Nc1c(OS(=O)(=O)c2ccccc2)cccc1OS(=O)(=O)c1ccccc1 result_value="> 67.5 µM (inactive)"
compound=CCOC(=O)c1c(C)[nH]c(N=Nc2cccc(OC)c2)c1C result_value="> 67.5 µM (inactive)"
compound=O=c1c2ccccc2nnn1CCc1ccccc1 result_value="> 67.4 µM (inactive)"

Inquiry: Answer with the recorded EC50 for the compound listed here: CC1CCc2c(sc(NC(=O)C3=COCCO3)c2C(N)=O)C1 (stereo unspecified)
Reply text: > 67.5 µM (inactive)

Inquiry: Answer with the recorded EC50 for the compound listed here: Oc1ccccc1-c1cc(-c2ccc(Cl)cc2)n[nH]1
Reply text: > 67.5 µM (inactive)

Inquiry: Answer with the recorded EC50 for the compound listed here: Cc1ccc(CN2CCN(CC(C)C)C(CCO)C2)s1 (stereo unspecified)
Reply text: > 67.6 µM (inactive)

Inquiry: Answer with the recorded EC50 for the compound listed here: O=c1c2cc(-c3ccccc3)sc2nc2n1CCC2
Reply text: > 67.5 µM (inactive)

Inquiry: Answer with the recorded EC50 for the compound listed here: CN(C)c1ccc(C(C#N)c2ccccc2)nn1 (stereo unspecified)
Reply text: > 67.5 µM (inactive)

Inquiry: Answer with the recorded EC50 for the compound listed here: O=[N+]([O-])c1ccc2c(c1)Nc1nc3ccccc3nc1N2
Reply text: > 67.5 µM (inactive)

Inquiry: Answer with the recorded EC50 for the compound listed here: Cc1ccc(SCCN2CCC(C)CCC2=O)cc1 (stereo unspecified)
Reply text: > 67.5 µM (inactive)

Inquiry: Answer with the recorded EC50 for the compound listed here: C/C(=C\C(=O)c1sccc1Cl)N(C)C
Reply text: > 67.6 µM (inactive)
